molecular target: UniProt:P22303; assay: biochemical; conditions: read-out: Enzyme IC50 hAChE
Sequence (P22303 32-614): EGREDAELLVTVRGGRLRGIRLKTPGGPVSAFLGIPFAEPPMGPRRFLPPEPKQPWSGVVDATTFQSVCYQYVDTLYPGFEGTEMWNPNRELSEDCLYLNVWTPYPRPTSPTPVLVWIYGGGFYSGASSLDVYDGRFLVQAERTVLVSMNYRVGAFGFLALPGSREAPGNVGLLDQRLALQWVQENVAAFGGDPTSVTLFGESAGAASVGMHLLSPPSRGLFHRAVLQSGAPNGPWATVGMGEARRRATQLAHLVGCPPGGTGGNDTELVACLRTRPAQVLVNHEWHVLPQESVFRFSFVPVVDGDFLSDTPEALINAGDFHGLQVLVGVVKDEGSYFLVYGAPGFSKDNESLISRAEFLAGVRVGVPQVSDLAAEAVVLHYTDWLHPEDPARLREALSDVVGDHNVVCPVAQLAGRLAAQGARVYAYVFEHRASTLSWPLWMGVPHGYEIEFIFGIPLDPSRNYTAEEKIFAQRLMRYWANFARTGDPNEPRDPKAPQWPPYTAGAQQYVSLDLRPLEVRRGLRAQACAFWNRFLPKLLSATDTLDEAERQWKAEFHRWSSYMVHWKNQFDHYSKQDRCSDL
Each item that follows carries a reported pIC50.
The meaning of pIC50 here: minus log10 of the concentration in molar units.

| Compound | pIC50 |
| --- | --- |
| O=c1c(O[C@@H]2O[C@H](CO)[C@@H](O)[C@H](O)[C@H]2O)c(-c2ccc(O)c(O)c2)oc2cc(O)cc(O)c12 [Quercetin 3-β-D-glucoside, quercetin 3-β-D-glucoside] | 3.01 |

# evaluate next
Looking up O=C(C=Cc1ccc(O)c(O)c1)OC1C(O)CC(O)(C(=O)O)CC1O (stereo not drawn) [4-O-caffeoylquinic acid] , I found its pIC50 recorded as 3.11

====

assay: Hydroxyl radical-scavenging assay; settings: Fenton reaction, 45 min 37 °C, 532 nm
Property measured: pEC50
Reminder that pEC50 means the negative base-10 logarithm of the concentration expressed in mol/L.

| Compound | Property measured | Experimental result |
| --- | --- | --- |
| Cc1c(C)c2c(c(C)c1O)CC[C@@](C)(CCC[C@H](C)CCC[C@H](C)CCCC(C)C)O2 [α-Tocopherol, α-tocopherol, reference compound] | pEC50 | 4.28 |
| O=c1c(O[C@@H]2O[C@H](CO)[C@@H](O)[C@H](O)[C@H]2O)c(-c2ccc(O)c(O)c2)oc2cc(O)cc(O)c12 [Quercetin 3-β-D-glucoside, quercetin 3-β-D-glucoside] | pEC50 | 4.26 |
| O=C(C=Cc1ccc(O)c(O)c1)OC1C(O)CC(O)(C(=O)O)CC1O (centres unmarked) | pEC50 | 3.92 |
| O=C(O)c1cc(O)c(O)c(O)c1 [Gallic acid, reference compound] | pEC50 | 4.10 |

Consider the additional compound presented here.
Note to self: pEC50 recorded for C[C@@H]1O[C@@H](OC[C@H]2O[C@@H](Oc3c(-c4ccc(O)c(O)c4)oc4cc(O)cc(O)c4c3=O)[C@H](O)[C@@H](O)[C@@H]2O)[C@H](O)[C@H](O)[C@H]1O [Rutin, quercetin-3-rutinoside] was 4.05

====

target: butyrylcholinesterase from horse (equine) serum (esBuChE) (Equus caballus); construct: butyrylcholinesterase from horse (equine) serum (esBuChE); purchased Sigma C7512; host or cells: horse serum; experiment: biochemical; conditions: read-out: Enzyme IC50 esBuChE
Sequence (P81908 whole entry): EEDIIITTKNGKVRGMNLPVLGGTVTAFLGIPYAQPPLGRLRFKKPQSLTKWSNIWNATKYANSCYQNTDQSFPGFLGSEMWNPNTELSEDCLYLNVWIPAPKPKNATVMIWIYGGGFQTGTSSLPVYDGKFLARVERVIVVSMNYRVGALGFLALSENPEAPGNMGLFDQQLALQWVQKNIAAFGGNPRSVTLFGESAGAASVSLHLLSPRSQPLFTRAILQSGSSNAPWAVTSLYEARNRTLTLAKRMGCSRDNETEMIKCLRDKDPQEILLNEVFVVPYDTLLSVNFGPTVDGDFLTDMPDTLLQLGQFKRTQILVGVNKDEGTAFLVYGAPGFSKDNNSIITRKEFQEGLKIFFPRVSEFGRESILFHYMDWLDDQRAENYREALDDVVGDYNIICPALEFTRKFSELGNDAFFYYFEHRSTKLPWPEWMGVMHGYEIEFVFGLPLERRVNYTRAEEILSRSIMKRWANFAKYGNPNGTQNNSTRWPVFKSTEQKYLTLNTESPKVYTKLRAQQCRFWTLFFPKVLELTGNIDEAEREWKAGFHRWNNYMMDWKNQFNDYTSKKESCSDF
Property measured: IC50 (µM)
Could you give me the number in µM? Just the number is fine.

// IC50 (butyrylcholinesterase from horse (equine) serum (esBuChE) (Equus caballus)) for O=C(C=Cc1ccc(O)c(O)c1)OC1C(O)CC(O)(C(=O)O)CC1O (centres unmarked) [4-O-caffeoylquinic acid] = 903

====

molecular target: human butyrylcholinesterase (hBuChE) (Homo sapiens); construct: purchased Sigma B4186; test: biochemical
Sequence (P06276 29-602): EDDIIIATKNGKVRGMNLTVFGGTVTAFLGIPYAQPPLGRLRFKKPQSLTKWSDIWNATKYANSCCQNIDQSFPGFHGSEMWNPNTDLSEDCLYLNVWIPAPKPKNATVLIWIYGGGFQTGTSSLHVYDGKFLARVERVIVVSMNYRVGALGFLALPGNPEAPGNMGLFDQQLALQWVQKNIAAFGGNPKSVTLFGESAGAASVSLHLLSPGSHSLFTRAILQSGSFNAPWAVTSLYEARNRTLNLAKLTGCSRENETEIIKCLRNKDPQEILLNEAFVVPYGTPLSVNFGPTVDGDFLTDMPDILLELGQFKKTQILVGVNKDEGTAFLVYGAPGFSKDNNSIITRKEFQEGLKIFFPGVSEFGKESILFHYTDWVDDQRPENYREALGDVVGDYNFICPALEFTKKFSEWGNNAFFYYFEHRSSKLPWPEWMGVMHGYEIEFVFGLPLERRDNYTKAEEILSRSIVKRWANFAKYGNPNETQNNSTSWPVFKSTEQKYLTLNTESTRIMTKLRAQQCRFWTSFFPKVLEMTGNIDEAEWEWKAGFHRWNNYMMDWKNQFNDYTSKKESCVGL
This listing pairs compounds with measured pIC50.
In simple prose, pIC50 is minus the logarithm base ten of a concentration in moles per litre.

Study these solved cases before continuing.
| Compound | Experimental result |
| --- | --- |
| CCN(CC)C(C)CN1c2ccccc2Sc2ccccc21 (stereo not drawn) [Ethopropazine, reference compound] | 4.86 |
| C[C@@H]1O[C@@H](OC[C@H]2O[C@@H](Oc3c(-c4ccc(O)c(O)c4)oc4cc(O)cc(O)c4c3=O)[C@H](O)[C@@H](O)[C@@H]2O)[C@H](O)[C@H](O)[C@H]1O [Rutin, quercetin-3-rutinoside] | 3.12 |

Now turn to the next compound.
Reported pIC50 ( O=c1c(O[C@@H]2O[C@H](CO)[C@@H](O)[C@H](O)[C@H]2O)c(-c2ccc(O)c(O)c2)oc2cc(O)cc(O)c12 [Quercetin 3-β-D-glucoside, quercetin 3-β-D-glucoside] ) = 3.03
